Attribution: ChEMBL document CHEMBL1909294

Measurement record for Hepatotoxicity; quantity recorded: HepSE_jaundice.
OBSERVABLE: HepSE_jaundice

CCC[C@H](N[C@@H](C)C(=O)N1[C@H](C(=O)O)C[C@@H]2CCCC[C@@H]21)C(=O)OCC [PERINDOPRIL]
1
Cc1ccc(O)c([C@H](CCN(C(C)C)C(C)C)c2ccccc2)c1 [TOLTERODINE]
0
CCCCCCC(C)(C)c1cc(O)c2c(c1)OC(C)(C)C1CCC(=O)CC21 (stereo not drawn) [NABILONE]
0
CC(C)N1CCN(c2ccc(OCC3COC(Cn4cncn4)(c4ccc(Cl)cc4Cl)O3)cc2)CC1 (stereo not drawn) [TERCONAZOLE]
0
COc1c(N2CCNC(C)C2)c(F)cc2c(=O)c(C(=O)O)cn(C3CC3)c12 (stereo not drawn) [GATIFLOXACIN]
0
CC(=O)O[C@H]1C[C@@H]2CC[C@@H]3[C@H](CC[C@@]4(C)[C@H]3C[C@H]([N+]3(C)CCCCC3)[C@@H]4OC(C)=O)[C@@]2(C)C[C@@H]1N1CCCCC1 [VECURONIUM]
0
Cc1nnc2n1-c1ccc(Cl)cc1C(c1ccccc1)=NC2 [ALPRAZOLAM]
1
O=C1CN=C(c2ccccc2Cl)c2cc([N+](=O)[O-])ccc2N1 [CLONAZEPAM]
0

###

What follows is a collection of HepSE_liver function tests abnormal values obtained with Hepatotoxicity.
OBSERVABLE: HepSE_liver function tests abnormal

CN(C)CCc1c[nH]c2ccc(Cn3cncn3)cc12
0
CCn1nc(C(=O)O)c(=O)c2cc3c(cc21)OCO3
0
COCCCOc1ccnc(C[S+]([O-])c2nc3ccccc3[nH]2)c1C (stereo not drawn)
1
Cc1onc(-c2ccccc2)c1-c1ccc(S(N)(=O)=O)cc1
0
Cc1ccc(S(=O)(=O)NC(=O)NN2CC3CCCC3C2)cc1 (stereo not drawn) [GLICLAZIDE]
0
CSCC[C@H](NC(=O)[C@H](Cc1ccc(OS(=O)(=O)O)cc1)NC(=O)[C@@H](N)CC(=O)O)C(=O)NCC(=O)N[C@@H](Cc1c[nH]c2ccccc12)C(=O)N[C@@H](CCSC)C(=O)N[C@@H](CC(=O)O)C(=O)N[C@@H](Cc1ccccc1)C(N)=O [SINCALIDE]
0
CO/N=C(\C(=O)N[C@@H]1C(=O)N2C(C(=O)[O-])=C(C[N+]3(C)CCCC3)CS[C@H]12)c1csc(N)n1
0
O=C(O)c1cc(/N=N/c2ccc(S(=O)(=O)Nc3ccccn3)cc2)ccc1O
1

###

Hepatotoxicity HepSE_liver function tests abnormal data
OBSERVABLE: HepSE_liver function tests abnormal

CCS(=O)(=O)CCn1c([N+](=O)[O-])cnc1C
0
C#Cc1cccc(Nc2ncnc3cc(OCCOC)c(OCCOC)cc23)c1
0
C=C[C@H]1C[N@@]2CC[C@H]1C[C@@H]2[C@@H](O)c1ccnc2ccc(OC)cc12
1
Cc1c(-c2ccccc2)oc2c(C(=O)OCCN3CCCCC3)cccc2c1=O [FLAVOXATE]
0
CN(C)/N=N/c1[nH]cnc1C(N)=O
0

###

test system: Hepatotoxicity
The reader will find reported HepSE_hepatic failure values listed item by item below.
OBSERVABLE: HepSE_hepatic failure

CCOC(=O)c1ncn2c1CN(C)C(=O)c1cc(F)ccc1-2 [FLUMAZENIL]
0
C1N2CN3CN1CN(C2)C3 [METHENAMINE]
0
CCC[C@@]1(CCc2ccccc2)CC(O)=C([C@H](CC)c2cccc(NS(=O)(=O)c3ccc(C(F)(F)F)cn3)c2)C(=O)O1
1
CC(C)(C)NC[C@H](O)COc1cccc2c1CCCC2=O [LEVOBUNOLOL]
0
CCCN(CCC)S(=O)(=O)c1ccc(C(=O)O)cc1 [PROBENECID]
0
CC(C)C(=O)Nc1ccc([N+](=O)[O-])c(C(F)(F)F)c1 [FLUTAMIDE]
0
Clc1ccc(CSC(Cn2ccnc2)c2ccc(Cl)cc2Cl)cc1 (centres undefined) [SULCONAZOLE]
0
CC(C)C[C@H]1C(=O)N2CCC[C@H]2[C@]2(O)O[C@](NC(=O)[C@@H]3C=C4c5cccc6[nH]c(Br)c(c56)C[C@H]4N(C)C3)(C(C)C)C(=O)N12 [BROMOCRIPTINE]
0
c1ccc2[nH]c(-c3cscn3)nc2c1 [THIABENDAZOLE]
1
